Target: 20S proteasome (chymotrypsin-like activity) (Homo sapiens, UniProt P28074)
Sequence (P28074 60-263): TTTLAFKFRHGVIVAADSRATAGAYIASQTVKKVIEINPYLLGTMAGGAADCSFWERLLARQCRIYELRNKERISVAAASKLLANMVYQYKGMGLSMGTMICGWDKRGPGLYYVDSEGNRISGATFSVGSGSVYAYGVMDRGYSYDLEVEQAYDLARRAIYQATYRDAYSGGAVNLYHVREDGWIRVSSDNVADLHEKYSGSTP
Quick list: pIC50 per entry.
On this scale, pIC50 is minus log10 of a concentration expressed in M (mol/L).

1) O=C([O-])Cc1c[nH]c2ccccc12.O=C([O-])Cc1c[nH]c2ccccc12.O=C([O-])Cc1c[nH]c2ccccc12.O=C([O-])Cc1c[nH]c2ccccc12.[Cu+2].[Cu+2] [compound 3, Complex 3] ... 5.52

# evaluate next
For the molecule O=C([O-])CCc1c[nH]c2ccccc12.O=C([O-])CCc1c[nH]c2ccccc12.[Cu+2].c1cnc2c(c1)ccc1cccnc12 [compound 6, Complex 6] , give its measured pIC50 value.
5.48

Origin of values: paper PMC3662054
